Assay: yeast display, Sf9 membrane polyspecificity reagent, FACS + sequencing; frameworks hold sequencing errors
measured_attribute: polyreactivity (PSR sort gate)

Ask: For the sequence shown here, QVQLVESGGGLVQAGGSLRLSCAASGRTFGQYAMGWYRQAPGKERELVAAISTRGGSTYYADSVKGRFTISRDNAKNTVYLQLNSLKPEDTAVYYCAARQGWFAGYEYWGQGTQVTVSS , give the reported polyreactivity (PSR sort gate).
Reply: low polyreactivity

Ask: Which polyreactivity (PSR sort gate) is reported for this sequence? QVQLVESGGGLVQAGGSLRLSCAASGSTFGRNAMGWYRQAPGKERELVAAISKTGGSTYYADSVKGRFTISRDNAKNTVYLQMNSLKPEDTAVYYCAARIRGFRTYYYWGQGTQVTVSS
Reply: high polyreactivity

Ask: Give its polyreactivity (PSR sort gate) value. Item: QVQLVESGGGLVQAGGSLRLSCAASGSTFYWYAMGWYRQATGKERELVAVITVRGGSTYYADSVKGRFTISRDNAKYTVYLQMNSLKPEDTAVYYCAAEQTSSLYKYWYDYWGQGTQVTVSS
Reply: low polyreactivity

Ask: Fill in the blank: the reported polyreactivity (PSR sort gate) of QVQLVESGGGLVQAGGSLRLSCAASGRISSGYAMGWYRQAPGKERELVAAISSIGGRTYYADSVKGRFTISRDNAKNTVYLQMNSLKPEDTAVYYCNTYPYIQRTWWYDYWGQGTQVTVSS is ____.
Reply: high polyreactivity

New cases:
Ask: Could you tell me which polyreactivity (PSR sort gate) is on file for QVQLVESGGGLVQAGGSLRLSCAASGSIFRYYAMGWYRQAPGKERELVAAISSNGGSTYYADSVKGRFTISRDNAKNTVYLQMNSLKPEDTAVYYCNAVKVGPYYFRSDYWGQGTQVTVSS ?
Reply: high polyreactivity

Ask: # query: polyreactivity (PSR sort gate) of entry QVQLVESGGGLVQAGGSLRLSCAASGRIFRPNAMGWYRQAPGKERELVAAITSNGGRTYYADSVKGRFTISRDNAKNTVYLQMNSLKPEDTAVYYCNAAPFRSGYGYWGQGTQVTVSS
Reply: high polyreactivity

Ask: # get_value(readout='polyreactivity (PSR sort gate)', item= QVQLVESGGCLVQAGGSLRLSCAATGRTFHGYAMGWYRQAPGKERELVAAITSSGARTYYADSVKGRFTISRDNAKNTVYLQMNSLKPEDTAVYYCAKRGKQYRKMNYWGQGTQVTVSS )
Reply: high polyreactivity

Ask: I have this sequence here, QVQLVESGGGLVQAGGSLRLSCAASGRIFYNYVMGWYRQAPGKERELVAAISDSGGSTYYADSVKGRFTISRDNAKNTVYLQMNSLKPEDTAVYYCNKVRPRKFWDYYYWGQGTQVTVSS , and I need its recorded polyreactivity (PSR sort gate).
Reply: high polyreactivity

----------
Experiment: yeast display, Sf9 membrane polyspecificity reagent, FACS + sequencing; frameworks hold sequencing errors
measured_attribute: polyreactivity (PSR sort gate)

Ask: What value of measured polyreactivity (PSR sort gate) is listed for QVQLVETGGGLVQAGGRLRLSCAASGITFYFNTMGWYRPAPGKERELVASISGGSSTYYADSVKGRFPISRDNAKNTVYLQMISLKREDTAVYYCNAQGSLFRGWFDYDYWGQGTQVTVSS ?
Reply: low polyreactivity

Ask: # get_value(readout='polyreactivity (PSR sort gate)', item= QVQLVESGGGLVQAGGSLRLSCAATGFTFVYYAMGWYRPAPGKERELVAAISSSGTRTYYADSVKGRFTISRDNAKNTVYLQMNSLKPEDTAVYFCAARNTYRTKVDYWGQGTQVTVSS )
Reply: high polyreactivity

Ask: Could you tell me which polyreactivity (PSR sort gate) is on file for QVQLVESGGCLVQAGGSIRLSCAASGSTFDINAMGWYRQAPGKERELVASITFSGGSTYYADSVKGRFTISRDNAKNTGYLQMNSLKPEDTAVYYCAADSSGEYPGGYWGQGTQVTVSS ?
Reply: low polyreactivity

Ask: I am curious: what polyreactivity (PSR sort gate) value has been reported for QVQLVESGGGLVQAGGSLRLSCAASGFIFSTNAMGWYRQAPGKERELVAAISRRGGNTYYADSVKGRFTISRDNAKNTVYLQMNSLKPEDTAVYYCNAVFRSGGLDYWGQGTQVTVSS ?
Reply: high polyreactivity

Read the next record carefully.
Ask: # lookup: polyreactivity (PSR sort gate) of QVQLVESGGGLVQAGGSLRLSCAASGFISTINVMGWYRQAPGKEREMVAAMTYIDGSTFYADSVKGRFTISRDNAKNTVYLQMNSLKPEDTAVYYCAADLYQWGAVFLYVRSTGLDYWGQGTQVTVSS
Reply: low polyreactivity
